system-under-test: Glutamate receptor ionotropic, NMDA 2B (Rattus norvegicus)
Sequence (Q00960 whole entry): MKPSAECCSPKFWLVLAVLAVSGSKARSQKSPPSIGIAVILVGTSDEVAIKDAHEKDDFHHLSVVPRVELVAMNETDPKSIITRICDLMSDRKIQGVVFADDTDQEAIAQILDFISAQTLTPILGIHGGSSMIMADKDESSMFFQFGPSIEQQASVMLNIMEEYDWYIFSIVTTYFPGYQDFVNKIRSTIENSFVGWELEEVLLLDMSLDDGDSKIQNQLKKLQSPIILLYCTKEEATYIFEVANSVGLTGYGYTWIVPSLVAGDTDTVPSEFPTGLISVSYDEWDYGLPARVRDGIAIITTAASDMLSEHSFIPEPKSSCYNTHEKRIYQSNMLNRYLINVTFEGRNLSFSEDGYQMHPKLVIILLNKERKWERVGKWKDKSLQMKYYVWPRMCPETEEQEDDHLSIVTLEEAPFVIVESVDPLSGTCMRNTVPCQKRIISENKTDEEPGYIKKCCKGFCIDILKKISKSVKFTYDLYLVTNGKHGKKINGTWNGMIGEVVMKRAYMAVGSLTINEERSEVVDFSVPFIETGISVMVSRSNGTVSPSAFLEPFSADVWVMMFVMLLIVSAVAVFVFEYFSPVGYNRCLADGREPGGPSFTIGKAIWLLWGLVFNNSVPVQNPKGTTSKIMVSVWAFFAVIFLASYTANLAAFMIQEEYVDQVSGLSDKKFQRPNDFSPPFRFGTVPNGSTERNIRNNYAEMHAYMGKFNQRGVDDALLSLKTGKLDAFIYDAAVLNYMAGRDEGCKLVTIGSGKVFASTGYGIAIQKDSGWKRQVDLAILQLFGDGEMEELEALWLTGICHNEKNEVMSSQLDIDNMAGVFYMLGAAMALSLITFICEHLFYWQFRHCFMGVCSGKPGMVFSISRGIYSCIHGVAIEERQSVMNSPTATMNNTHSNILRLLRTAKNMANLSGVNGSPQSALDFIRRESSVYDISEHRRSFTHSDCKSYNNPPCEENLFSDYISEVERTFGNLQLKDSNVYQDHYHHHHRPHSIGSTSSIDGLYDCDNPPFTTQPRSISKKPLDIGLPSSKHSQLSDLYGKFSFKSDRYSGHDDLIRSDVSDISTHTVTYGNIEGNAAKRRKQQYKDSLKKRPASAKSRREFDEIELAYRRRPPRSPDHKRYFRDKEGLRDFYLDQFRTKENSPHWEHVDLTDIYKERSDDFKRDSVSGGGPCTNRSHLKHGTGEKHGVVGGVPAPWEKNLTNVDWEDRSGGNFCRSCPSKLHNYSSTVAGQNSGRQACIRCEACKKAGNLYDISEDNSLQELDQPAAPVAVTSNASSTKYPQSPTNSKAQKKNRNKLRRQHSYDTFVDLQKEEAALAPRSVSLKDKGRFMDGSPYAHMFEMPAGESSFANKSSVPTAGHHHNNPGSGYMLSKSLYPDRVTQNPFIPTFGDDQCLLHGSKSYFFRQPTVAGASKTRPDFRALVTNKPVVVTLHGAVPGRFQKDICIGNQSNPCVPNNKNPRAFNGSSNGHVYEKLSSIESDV
In this section we review reported Ki values for a set of compounds.
reported-property: Ki (nM)

• N=C(NCc1ccc(F)c(F)c1)c1ccc(OC(F)(F)F)cc1 = 8.25
• COc1ccc(OC)c(CNC(=N)c2ccc(OC(F)(F)F)cc2)c1 = 4.29
• COc1cc(CNC(=N)c2ccc(OC(F)(F)F)cc2)cc(OC)c1 = 22.9
• N=C(NCc1ccc2c(c1)OCO2)c1ccc(OC(F)(F)F)cc1 = 26.3
• NC(=NCC12CC3CC(CC(C3)C1)C2)c1ccc(OC(F)(F)F)cc1 = 4810
